# TESTED_SYSTEM: recombinant human Meningioma Expressed Antigen 5 (MGEA5), also referred to as O-GlcNAcase (OGA) (Homo sapiens, UniProt O60502)
# Construct: Full length OGA enzyme was purchased at OriGene (cat # TP322411); purchased OriGene TP322411
# Sequence (O60502 whole entry): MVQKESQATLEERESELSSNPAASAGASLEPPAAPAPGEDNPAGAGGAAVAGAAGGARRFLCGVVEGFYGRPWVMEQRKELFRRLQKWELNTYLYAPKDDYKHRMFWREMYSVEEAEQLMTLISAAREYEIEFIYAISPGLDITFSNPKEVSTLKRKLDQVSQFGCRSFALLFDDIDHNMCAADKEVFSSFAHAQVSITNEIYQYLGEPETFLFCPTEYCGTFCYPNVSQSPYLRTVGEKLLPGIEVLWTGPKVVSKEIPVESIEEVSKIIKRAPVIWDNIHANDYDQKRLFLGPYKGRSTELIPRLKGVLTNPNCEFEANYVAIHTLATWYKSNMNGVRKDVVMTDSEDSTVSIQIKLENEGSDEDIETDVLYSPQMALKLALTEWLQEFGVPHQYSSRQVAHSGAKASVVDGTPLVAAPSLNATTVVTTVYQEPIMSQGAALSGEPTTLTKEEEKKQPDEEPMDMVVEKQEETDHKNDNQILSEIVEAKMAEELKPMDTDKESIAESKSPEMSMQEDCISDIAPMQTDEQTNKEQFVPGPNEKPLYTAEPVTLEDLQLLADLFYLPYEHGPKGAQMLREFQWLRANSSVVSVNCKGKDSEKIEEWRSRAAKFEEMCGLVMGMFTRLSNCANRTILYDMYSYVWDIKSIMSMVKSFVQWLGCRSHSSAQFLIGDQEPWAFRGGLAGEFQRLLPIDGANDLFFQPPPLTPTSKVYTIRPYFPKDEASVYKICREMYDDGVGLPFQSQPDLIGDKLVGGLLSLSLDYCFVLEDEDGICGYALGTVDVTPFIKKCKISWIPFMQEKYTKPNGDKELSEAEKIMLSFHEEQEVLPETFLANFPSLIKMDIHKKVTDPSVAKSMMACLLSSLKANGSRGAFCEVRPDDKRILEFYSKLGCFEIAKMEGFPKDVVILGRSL
# TEST_PROTOCOL: OGA biochemical assay: inhibition of FM-GlcNAc hydrolysis, fluorescence; protocol A (10 nM OGA, 1 h) or protocol B (2 nM OGA, 6 h)
# TEST_CONDITIONS: Enzymatic protocol B (2 nM OGA, 6 h)
Hi, to clarify the labels: criterion met covers Enzymatic hOGA; pIC50 from 8 upward, criterion not met covers anything below 8.

INSERT INTO assay_data (compound, assigned_class) VALUES
  ('CC(=O)Nc1ncc(CN2CCC[C@H](c3cc4cc[nH]c4nc3C)C2)s1 (single isomer, unassigned)', 'criterion met'),
  ('CC(=O)Nc1ncc(CN2CCC[C@H](c3cnc4cc[nH]c4c3)C2)s1 (single isomer, unassigned)', 'criterion not met'),
  ('CC(=O)Nc1ncc(CN2CCCC(c3cc(C)nc4ccn(C)c34)C2)s1 (stereo not drawn)', 'criterion met'),
  ('CC(=O)Nc1ncc(CN2CCCC(c3nc(C)cc4cc[nH]c34)C2)s1 (stereo not drawn)', 'criterion not met'),
  ('CC(=O)Nc1ncc(CN2CCCC(c3cc(C)nc4cc[nH]c34)C2)s1 (stereo not drawn)', 'criterion not met');

###

# TESTED_SYSTEM: recombinant human Meningioma Expressed Antigen 5 (MGEA5), also referred to as O-GlcNAcase (OGA) (Homo sapiens)
# Construct: Full length OGA enzyme was purchased at OriGene (cat # TP322411); purchased OriGene TP322411
# TEST_PROTOCOL: OGA biochemical assay: inhibition of FM-GlcNAc hydrolysis, fluorescence; protocol A (10 nM OGA, 1 h) or protocol B (2 nM OGA, 6 h)
# TEST_CONDITIONS: Enzymatic protocol B (2 nM OGA, 6 h)
PARAMETER_MEASURED: Emax (%)

INSERT INTO assay_data (molecule, measured) VALUES
  ('Cc1cc(C2CCCN(C(C)c3ccc4c(c3)OCO4)C2)n2ccnc2n1 (stereo not shown)', 101),
  ('CC(=O)Nc1ncc(CN2CCC[C@H](c3ccnc4ccn(C)c34)C2)s1 (single isomer, unassigned)', 100),
  ('CC(=O)Nc1ncc(CN2CCCC(c3cccc4nccn34)C2)s1 (racemic)', 105),
  ('Cc1cc(C2CN(C(C)c3ccc4c(c3)OCO4)CCO2)n2ncnc2n1 (stereo not shown)', 64.6);

###

# TESTED_SYSTEM: recombinant human Meningioma Expressed Antigen 5 (MGEA5), also referred to as O-GlcNAcase (OGA) (Homo sapiens)
# Construct: Full length OGA enzyme was purchased at OriGene (cat # TP322411); purchased OriGene TP322411
# TEST_PROTOCOL: OGA biochemical assay: inhibition of FM-GlcNAc hydrolysis, fluorescence; protocol A (10 nM OGA, 1 h) or protocol B (2 nM OGA, 6 h)
# TEST_CONDITIONS: Enzymatic protocol B (2 nM OGA, 6 h); read-out: Enzymatic hOGA; pIC50 (converted)
A collection of compounds and their measured IC50
PARAMETER_MEASURED: IC50

INSERT INTO measurements (compound, measured) VALUES
  ('CC(=O)Nc1ncc(CN2CCCC(Nc3cc(C)nc4ncnn34)C2)s1 (centres unmarked) [Product 51]', '115 nM'),
  ('CC(=O)Nc1ncc(CN2CCOC(c3cc(C)nc4ncnn34)C2)s1 (centres unmarked) [Product 35]', '1480 nM'),
  ('CC(=O)Nc1ncc(CN2CCCC(c3cccc4nccn34)C2)s1 (racemic) [Product 12]', '10.7 nM'),
  ('CC(=O)Nc1ncc(CN2CCC(Cc3c(F)c(C)nc4ncnn34)C2)s1 (centres unmarked) [Product 49]', '1.74 nM'),
  ('CC(=O)Nc1ncc(CN2CCCC(c3cc(C)nc4nccn34)C2)s1 (centres unmarked) [Product 17]', '8.51 nM'),
  ('CC(=O)Nc1ncc(CN2CCCC(c3cnc4cc[nH]c4c3)C2)s1 (centres unmarked) [Product 106]', '275 nM'),
  ('CC(=O)Nc1ncc(CN2CCCC(Cc3cc(C)nc4ccnn34)C2)s1 (centres unmarked) [Product 44]', '3.8 nM'),
  ('CC(=O)Nc1ncc(CN2CC[C@H](Cc3cncc4nccn34)C2)s1 [Product 108]', '4.9 nM'),
  ('CC(=O)Nc1ncc(CN2CCCC(c3cnc4cc[nH]c4c3)C2)s1 (racemic) [Product 26]', '40.7 nM'),
  ('CC(=O)Nc1ncc(CN2CCCC(c3cc(C)nc4ncnn34)C2)s1 (racemic) [Product 11]', '6.17 nM'),
  ('CC(=O)Nc1ncc(CN2CCC(Cc3cc(C)nc4ncnn34)C2)s1 (centres unmarked) [Product 48]', '1.74 nM'),
  ('CC(=O)Nc1ncc(CN2CCC(c3cc(C)nc4ncnn34)C2)s1 (centres unmarked) [Product 18]', '295 nM'),
  ('Cc1cc(C2CCCN(C(C)c3ccc4c(c3)OCO4)C2)n2ccnc2n1 (centres unmarked) [Product 52]', '18.6 nM'),
  ('CC(=O)Nc1ncc(CN2CCCC(c3cc4c(ccn4C)nc3C)C2)s1 (centres unmarked) [Product 105]', '7.41 nM'),
  ('CC(=O)Nc1ncc(CN2CC[C@H](Cc3nccn4c(C)cnc34)C2)s1 [Product 104]', '1.48 nM'),
  ('Cc1cc([C@H]2CN([C@@H](C)c3ccc4c(c3)OCO4)CCN2)n2ncnc2n1 [Product 57]', '617 nM'),
  ('CC(=O)Nc1ncc(CN2CCC[C@@H](c3ccnc4ncnn34)C2)s1 [Product 65]', '123 nM');

###

# TESTED_SYSTEM: recombinant human Meningioma Expressed Antigen 5 (MGEA5), also referred to as O-GlcNAcase (OGA) (Homo sapiens, UniProt O60502)
# Construct: Full length OGA enzyme was purchased at OriGene (cat # TP322411); purchased OriGene TP322411
# TEST_PROTOCOL: OGA biochemical assay: inhibition of FM-GlcNAc hydrolysis, fluorescence; protocol A (10 nM OGA, 1 h) or protocol B (2 nM OGA, 6 h)
# TEST_CONDITIONS: Enzymatic protocol B (2 nM OGA, 6 h)
PARAMETER_MEASURED: Emax (%)

INSERT INTO assay_data (compound, parameter_measured, scale_unit, measured) VALUES
  ('CC(=O)Nc1ncc(CN2CCCC(Cc3cc(C)nc4ccnn34)C2)s1 (stereo not drawn) [Product 44]', 'Emax', '%', 101),
  ('CC(=O)Nc1ncc(CN2CCC[C@@H](c3ccnc4ncnn34)C2)s1 [Product 65]', 'Emax', '%', 99.2),
  ('CC(=O)Nc1ncc(CN2C[C@@H](c3cc(C)nc4ncnn34)C[C@@H](C(F)(F)F)C2)s1 (mixture of isomers) [Product 84]', 'Emax', '%', 88.5),
  ('CC(=O)Nc1ncc(CN2CCCC(c3cc4ccn(C)c4nc3C)C2)s1 (stereo not drawn) [Product 101]', 'Emax', '%', 102),
  ('CC(=O)Nc1ncc(CN2CC[C@H](Cc3nccn4c(C)cnc34)C2)s1 [Product 104]', 'Emax', '%', 100),
  ('CC(=O)Nc1ncc(CN2CCCC(c3cc4c(ccn4C)nc3C)C2)s1 (stereo not drawn) [Product 105]', 'Emax', '%', 102),
  ('CC(=O)Nc1ncc(CN2CCOC(c3ccnc4ncnn34)C2)s1 (stereo not drawn) [Product 36]', 'Emax', '%', 93.6),
  ('CC(=O)Nc1ncc(CN2CCCC(Cc3cnc4cc[nH]c4c3)C2)s1 (stereo not drawn) [Product 97]', 'Emax', '%', 102),
  ('Cc1cc([C@H]2CN([C@@H](C)c3ccc4c(c3)OCO4)CCN2)n2ncnc2n1 [Product 57]', 'Emax', '%', 93),
  ('CC(=O)Nc1ncc(CN2CCC(Cc3cnc4cc[nH]c4c3)C2)s1 (stereo not drawn) [Product 68]', 'Emax', '%', 101),
  ('CC(=O)Nc1ncc(CN2CCCC(c3cc(C)nc4ncnn34)C2)s1 (racemic) [Product 11]', 'Emax', '%', 100),
  ('CC(c1ccc2c(c1)OCO2)N1CCOC(c2ccnc3ncnn23)C1 (stereo not drawn) [Product 55]', 'Emax', '%', 51.8),
  ('CC(=O)Nc1ncc(CN2CCC(c3cc(C)nc4ncnn34)C2)s1 (stereo not drawn) [Product 18]', 'Emax', '%', 97.3),
  ('CC(=O)Nc1ncc(CN2CCC(Cc3c(F)c(C)nc4ncnn34)C2)s1 (stereo not drawn) [Product 49]', 'Emax', '%', 101),
  ('CC(=O)Nc1ncc(CN2CCC(c3cc(C(F)(F)F)nc4ncnn34)C2)s1 (stereo not drawn) [Product 20]', 'Emax', '%', 93.7),
  ('CC(=O)Nc1ncc(CN2CCCC(c3ccnc4nccn34)C2)s1 (racemic) [Product 10]', 'Emax', '%', 100),
  ('CC(=O)Nc1ncc(CN2CCCC(C)(c3cc(C(F)F)nc4ncnn34)C2)s1 (stereo not drawn) [Product 61]', 'Emax', '%', 27.4),
  ('CC(=O)Nc1ncc(CN2CCCC(Nc3cc(C)nc4ncnn34)C2)s1 (stereo not drawn) [Product 51]', 'Emax', '%', 98.5),
  ('CC(=O)Nc1ncc(S(=O)(=O)N2CCOC(c3cc(C)nc4ncnn34)C2)s1 (racemic) [Product 28]', 'Emax', '%', 101),
  ('CC(=O)Nc1ncc(CN2CCCC(c3nc(C)cc4cc[nH]c34)C2)s1 (stereo not drawn) [Product 91]', 'Emax', '%', 103),
  ('CC(=O)Nc1ncc(CN2CCC(c3cc(C)nc4ccnn34)C2)s1 (stereo not drawn) [Product 21]', 'Emax', '%', 98.3),
  ('CC(=O)Nc1ncc(CN2CCC(Cc3cnc4ccn(C)c4c3)C2)s1 (stereo not drawn) [Product 69]', 'Emax', '%', 99.6),
  ('CC(=O)Nc1ncc(CN2CCCC(Cc3cccc4nccn34)C2)s1 (stereo not drawn) [Product 66]', 'Emax', '%', 101),
  ('Cc1cc(C2CN(CC(=O)N3CCCC3)CCO2)n2ncnc2n1 (stereo not drawn) [Product 59]', 'Emax', '%', -1.34),
  ('c1cc(CC2CCN(Cc3ccc4nccnc4c3)C2)n2ccnc2c1 (stereo not drawn) [Product 58]', 'Emax', '%', 97.3),
  ('CC(=O)Nc1ncc(CN2CCCC(c3ccnc4cc[nH]c34)C2)s1 (racemic) [Product 15]', 'Emax', '%', 97.8),
  ('CC(=O)Nc1ncc(CN2CCCC(C)(c3cc(C(F)F)n4ncnc4n3)C2)s1 (stereo not drawn) [Product 62]', 'Emax', '%', 16.2),
  ('CC(=O)Nc1ncc(CN2CCCC(c3cc(C)nc4nccn34)C2)s1 (stereo not drawn) [Product 17]', 'Emax', '%', 101),
  ('CC(=O)Nc1ncc(CN2CCCC(c3nc(C)cc4ccn(C)c34)C2)s1 (stereo not drawn) [Product 88]', 'Emax', '%', 101),
  ('CC(=O)Nc1ncc(CN2CC[C@H](Cc3cncc4nccn34)C2)s1 [Product 108]', 'Emax', '%', 101),
  ('CC(=O)Nc1ncc(CN2CCOC(c3cc(C)nc4ncnn34)C2)s1 (stereo not drawn) [Product 35]', 'Emax', '%', 86.7),
  ('CC(=O)Nc1ncc(CN2CCC(Cc3cc(C)nc4ncnn34)C2)s1 (stereo not drawn) [Product 48]', 'Emax', '%', 103),
  ('CC(=O)Nc1ncc(CN2CCNC(c3cc(C)nc4ncnn34)C2)s1 (stereo not drawn) [Product 42]', 'Emax', '%', 93.6),
  ('CC(c1ccc2c(c1)OCO2)N1CCOC(c2cc(C(F)(F)F)nc3ncnn23)C1 (stereo not drawn) [Product 54]', 'Emax', '%', 25.1),
  ('CC(=O)Nc1ncc(CN2CCC(c3c(F)c(C)nc4ncnn34)C2)s1 (stereo not drawn) [Product 19]', 'Emax', '%', 97.2),
  ('CC(=O)Nc1ncc(CN2CCCC(c3ccc4c(ccn4C)n3)C2)s1 (stereo not drawn) [Product 100]', 'Emax', '%', 98.5);
